Taken from ChEMBL document CHEMBL1201862.

- Test system: HT-29
- Assay Remarks: NCI tumour cell line growth inhibition, 48 h
The source made the active and inactive calls. Rule as the data show it: active = GI50 up to about 1.1 µM and inactive = higher.
Log the outcome using a class from yes for active, no for inactive

INSERT INTO assay_data (compound, assayed_target, group_label) VALUES
  ('O=C1c2cccc(NCCNCCO)c2C(=O)c2cccc(NCCNCCO)c21', 'HT-29', 'yes'),
  ('CCOC(=O)N1c2c(ccn2C)-c2ccn(C)c2N1C(=O)OCC', 'HT-29', 'no'),
  ('FC(F)(F)c1cccc(-c2nc3ccccc3c3c2[C@@]2(N4CCCC4)CCCC[C@@H]32)c1', 'HT-29', 'no');

Look up the recorded call for Nc1ccccc1-c1noc(=O)[nH]1 in this test. no

Write down the call the test reported for this compound. Item: O=C1NC(=S)N/C1=C\c1ccc(Sc2ccccc2C(=O)O)s1 no

What did this assay record as the result for O=C1NNC2NC(=O)C3(NN2C1=O)c1ccccc1-c1ccccc13 (centres undefined) ? no

Identify the outcome logged in this assay for the compound shown: Cc1cc(C)cc(Nc2nnc3n2S(=O)(=O)c2cc(C#N)c(Cl)cc2S3)c1 no

Can you look up the reported call for CCCCCCCCC(C)CCCCCCCCC(=O)OCC(COP(=O)([O-])OCC[N+](C)(C)C)OC(=O)CCCCCCCCC(C)CCCCCCCC (centres undefined) for me? no

Status in this test for CCN(CC)CCCCC1CCN(CC(=O)N2c3cc(Cl)ccc3NC(=O)CC2C)CC1 (centres undefined) ? no

Per the records of this test, what outcome belongs to Oc1nc(S)nc(SCc2c(Cl)c(Cl)c(Cl)c(Cl)c2Cl)n1 ? no

For this compound, state the assay outcome: CC(=O)c1cccc(NC(=O)C(=O)C(C2OC(=O)c3ccccc32)[N+](=O)[O-])c1 (centres undefined) no

###

- System: UO-31
- Assay Remarks: NCI tumour cell line growth inhibition, 48 h
Activity calls are given as the source filed them. No stated cut-off is given here; in the data, active = GI50 up to about 1.1 µM and inactive = higher.
Measured GI50 values are reported for all entries that follow.

INSERT INTO measurements (compound, value_measured) VALUES
  ('NS(=O)(=O)c1ccc(NC(=O)N/N=C/c2ccccc2[N+](=O)[O-])cc1', '41 µM (inactive)'),
  ('CN(C)CCOc1ccc2[nH]c(C(=O)N3CC(CCl)c4ccc(N)cc43)cc2c1 (stereo not given)', '0.065 µM (active)'),
  ('COC(=O)[C@H]1[C@@H](O)[C@@]2(O)c3c(OC)cc(OC)cc3O[C@@]2(c2ccc3c(c2)OCO3)[C@@H]1c1ccccc1', '0.00604 µM (active)'),
  ('Cc1ccc(/C=C2/NC(=S)SC2=O)cc1', '24.5 µM (inactive)');

Next, consider the following compound.
get_value(item= CC12CCCCC1(C)C2Sc1ccccc1 (stereo not given) , readout=GI50) returns 57.9 µM (inactive)

###

- System: MDA-MB-435
- Assay Remarks: NCI tumour cell line growth inhibition, 48 h
Active and inactive are the calls of the source. Cut-off read from the data, not from the text of the source: active = GI50 up to about 1.1 µM and inactive = higher.
Result Type: GI50

Known results for compounds:
INSERT INTO measurements (compound, value_measured) VALUES
  ('CN(Cc1cnc2nc(N)nc(N)c2n1)c1ccc(C(=O)NC(CCC(=O)NC(P(=O)(O)O)P(=O)(O)O)C(=O)O)cc1 (centres undefined)', '30 µM (inactive)'),
  ('Cc1cccc2c1C(=O)/C(=C/c1ccccc1C(=O)O)C2', '> 100 µM (inactive)'),
  ('Nc1ccc(Oc2ccc(C34CC5CC(C3)CC(c3ccc(Oc6ccc(N)cc6C(F)(F)F)cc3)(C5)C4)cc2)c(C(F)(F)F)c1', '24.2 µM (inactive)');

Record ClC(Cl)(Cl)C1CCOC1n1nnc2ccccc21 (centres undefined) , field GI50: > 100 µM (inactive)

The compound identified as CCN(CC)c1ccc2cc(C(=O)Nc3ccccn3)c(=N)oc2c1 registered its GI50 at > 100 µM (inactive)
